- Tested on: KM12 colon
- METHOD: NCI tumour cell line growth inhibition, 48 h
ENDPOINT: TGI

> print(dat)
                          chemical.structure  endpoint  value.measured
 1             O=C(Cc1ccccc1)N/N=C/c1ccccc1O       TGI        > 100 µM
 2     O=C1/C(=C/c2ccc(O)cc2)CSc2ccc(Cl)cc21       TGI         15.7 µM
 3  O=C(/C(=C/c1cccc([N+](=O)[O-])c1)c1ccccc1)c1ccccc1       TGI         13.1 µM
 4  O=C1NN(C2=NNC3(C(=O)N2)c2ccccc2-c2ccccc23)C(c2ccccc2)=N/C1=C/c1ccc(O)cc1       TGI      57.6 µg/mL
 5  Clc1ccc(-c2c(C3=NCCCN3)nnn2-c2ccc(Cl)cc2)cc1       TGI       > 77.5 µM
 6    COc1ccc(CCN2CCN(CCc3ccc(OC)cc3)CC2)cc1       TGI        > 100 µM
 7        CSc1nc2cc(S(=O)(=O)N3CCCCC3)ccc2s1       TGI        > 100 µM
 8  CCOC(=O)c1c(C)nc2c(c1N)/C(=C/c1ccc(OC)cc1)C(=O)N2Cc1ccc(F)cc1       TGI        0.844 µM
 9              CN(C)CCCN1c2ccccc2Sc2cnccc21       TGI        > 100 µM
10  c1ccc(CSP234N5CCN2CCN3CCN4CC5)c(CSP234N5CCN2CCN3CCN4CC5)c1       TGI        > 100 µM

----------
- Test system: ACHN renal
- METHOD: NCI tumour cell line growth inhibition, 48 h; in the data active = GI50 below about 0.43 µM; inactive = the rest
Possible outcomes: True for active, False for inactive

> print(dat)
                                   compound  assigned.label
1  COc1ccc(-n2cc(-c3cc(OC)c(OC)c(OC)c3)[nH]c2=O)cc1Cl           False
2    c1cc[c]([Pb]([c]2ccccc2)[c]2ccccc2)cc1           False
3  Cc1ccc(NC(=O)c2sc3nc(C)c(C(O)c4ccccc4)cc3c2N)cc1 (stereo unspecified)           False
4             C/C(=N\Nc1ccc(Cl)cn1)c1ccccn1            True
5  O=C1NN(C2=NNC3(C(=O)N2)c2ccccc2-c2ccccc23)C(c2ccccc2)=N/C1=C/c1ccc(O)cc1           False
6  Cc1ccc2[nH]c(C(=O)NN3C(=O)C(C)SC34CCCC(C)C4)c(-c3ccccc3)c2c1 (stereo unspecified)           False

----------
Catalogue of compounds with associated GI50
- Tested on: HCT-116 colon
- METHOD: NCI tumour cell line growth inhibition, 48 h
ENDPOINT: GI50

> print(dat)
                                   compound  value.measured
1  CCC(=O)c1c(C(F)(F)F)n([O-])c2ccc(C)cc2[n+]1=O         13.8 µM
2  C/C=C1/C(=C/c2[nH]c(/C=c3\[nH]/c(=C/C4=NC(=O)C(CC)=C4C)c(C)c3CCC(=O)O)c(CCC(=O)O)c2C)NC(=O)C1C (centres undefined)     > 150 µg/mL
3  COc1cc(/C=C2\CCCC3=C2NC(C)=NC3c2cc(OC)c(OC)c(OC)c2)cc(OC)c1OC (centres undefined)         0.46 µM
4  CC[CH2][Sn]([Cl])([Cl])[CH2]CC.Oc1ccccc1C=NCCN=Cc1ccccc1O         4.89 µM

----------
- Tested on: K-562 leukemia
- METHOD: NCI tumour cell line growth inhibition, 48 h
Catalogue of compounds with associated TGI

COMPOUND	ASSAY_SYSTEM	TGI
FC(F)(F)c1nc(-c2ccccc2)oc1Sc1nnc(Sc2oc(-c3ccccc3)nc2C(F)(F)F)s1	K-562 leukemia	> 64.5 µM
CC(C)(C)C1=CC(=C(c2ccc(-c3c4nc(c(-c5ccc(C(=C6C=C(C(C)(C)C)C(=O)C(C(C)(C)C)=C6)c6cc(C(C)(C)C)c(O)c(C(C)(C)C)c6)cc5)c5ccc([nH]5)c(-c5ccc(C(=C6C=C(C(C)(C)C)C(=O)C(C(C)(C)C)=C6)c6cc(C(C)(C)C)c(O)c(C(C)(C)C)c6)cc5)c5nc(c(-c6ccc(C(=C7C=C(C(C)(C)C)C(=O)C(C(C)(C)C)=C7)c7cc(C(C)(C)C)c(O)c(C(C)(C)C)c7)cc6)c6ccc3[nH]6)C=C5)C=C4)cc2)c2cc(C(C)(C)C)c(O)c(C(C)(C)C)c2)C=C(C(C)(C)C)C1=O	K-562 leukemia	> 100 µM
C=C(C)C(=O)OC1CCC2(C)C(CCC3C2CCC2(C)C(c4ccc(=O)oc4)CC4OC432)C1 (stereo not drawn)	K-562 leukemia	32.9 µM
O=c1[nH]c(Nc2nc3ccccc3[nH]2)nc2c1CCC2	K-562 leukemia	> 100 µM
CC1(C)N=C(N)N=C(N)N1c1ccc(OCc2ccc(S(=O)(=O)F)c(Cl)c2)c(Cl)c1	K-562 leukemia	> 100 µM
CCO/N=C(/N)c1ncn(Cc2ccccc2)c1NCC(OCC)OCC	K-562 leukemia	> 100 µM
CC(C)Oc1ccc2c(c1)OCC1Cc3ccccc3OC21 (stereo not drawn)	K-562 leukemia	> 100 µM
Nc1ncn(C2CC(O)C(CO)O2)c(=O)n1 (stereo not drawn)	K-562 leukemia	> 332 µM

----------
- Test system: NCI-H522 lung
- METHOD: NCI tumour cell line growth inhibition, 48 h
Catalogue of compounds with associated TGI
ENDPOINT: TGI (µM)

> print(dat)
                                    compound  endpoint  measure.unit  inequality.sign  value.measured
 1  O=C1CCCCC2N(C(c3ccccc3)c3ccccc3)CC[C@@]12c1ccccc1 (mixture of isomers)       TGI            µM                >              10
 2  O=C(/C=C\n1cnc(-c2cc(C(F)(F)F)cc(C(F)(F)F)c2)n1)NNc1cnccn1       TGI            µM                =            6.42
 3  Cn1cnc([N+](=O)[O-])c1[Se]c1nc(N)nc2c1ncn2C1OC(CO)C(O)C1O (stereo unspecified)       TGI            µM                >             100
 4         Cc1ccc(C)c(COCCOCn2ccc(N)nc2=O)c1       TGI            µM                >             100
 5  N#Cc1c(Cl)c2cc([N+](=O)[O-])ccc2n2c1nc1ccccc12       TGI            µM                =            4.71
 6  Cc1nc2ccccc2n1C(=O)c1c(F)c(F)c(F)c(F)c1F       TGI            µM                =            10.9
 7    COc1ccc(CCN2CCN(CCc3ccc(OC)cc3)CC2)cc1       TGI            µM                >             100
 8  C=C1C(=O)O[C@H]2[C@H]1CC/C(COC(=O)c1cc3ccccc3s1)=C\CC[C@@]1(C)O[C@@H]21       TGI            µM                =            2.34
 9  COC1(OC)CC(CO)(CNc2nc(N)nc(Cl)c2/C=N\O)C1       TGI            µM                >             100
10  COC(=O)C(COC(C)=O)NC(=O)/C=C/c1ccc(O)c(OC(C)=O)c1 (stereo unspecified)       TGI            µM                =            40.4
11                    Clc1ccccc1/C=C/c1cscn1       TGI            µM                >             100
12        CSc1nc2cc(S(=O)(=O)N3CCCCC3)ccc2s1       TGI            µM                >             100
13  O=C(/C(=C/c1cccc([N+](=O)[O-])c1)c1ccccc1)c1ccccc1       TGI            µM                =            3.77
14  COc1ccccc1N1CCN(CCCN2/C(=C(\O)c3ccccc3)C(=O)c3c(C)cc(C)nc3S2(=O)=O)CC1       TGI            µM                >             100
15  O=S1(=O)N(CCNc2nccc(-c3c(-c4cccc(O)c4)nc4sccn34)n2)CCN1Cc1ccccc1       TGI            µM                =            14.9
16  N#CCC(=O)NC1C2CC3CC(C2)CC1C3 (stereo unspecified)       TGI            µM                =              31
17  COc1cc(/C=C2\CN(C)CC3=C2NC(=S)NC3c2cc(OC)c(OC)c(OC)c2)cc(OC)c1OC (stereo unspecified)       TGI            µM                >             100
18  COC1=CC2(C=CC1=O)c1cc(OC)c(OC)cc1CCN2C(=O)c1ccccc1 (stereo unspecified)       TGI            µM                >             100
19  CC12CCC([C@H](C(O)C3CCCCC3)C1=O)C2(C)C (stereo partly specified)       TGI            µM                >             100
20  CCCCOC(=O)NC(=O)c1cn(C2CCCCC2)c(=O)[nH]c1=O       TGI            µM                >             100
21  CC(=O)O.[Au].c1ccc([PH+](c2ccccc2)c2ccccc2)cc1       TGI            µM                =            1.96
